Source: the supplement of paper PMC11451515

- Test system: SEM cells
- experimentDescription: cell viability relative to DMSO control; higher = less cytotoxic
- testSettings: RPMI 5 mM glucose + 10% FBS; 48 h; 15.4 µM
parameterMeasured: cell viability (%)

INSERT INTO measurements (molecule, numericreadout) VALUES
  ('O=C(O)CCCCC(CCSCc1ccccc1)SCc1ccccc1 (stereo not given)', 107),
  ('C[C@H](CCC(=O)O)[C@H]1CCC2C3C[C@H](O)[C@@H]4C[C@H](O)CC[C@]4(C)C3CC[C@@]21C (stereo not given in full)', 107),
  ('CCc1cc(C(N)=S)ccn1', 36.1),
  ('O=S(=O)([O-])CCS.[Na+]', 123),
  ('O=C/1NC(=O)C(=C1C2=CN=C3C=CC=C[N]23)/C4=C[N]5CCN(CC6=C5C4=CC=C6)C(=O)N7CCOCC7', 13.1);
